# System: HOP-62
# assay_procedure: relative viability (nuclei count vs DMSO), 5 days (fraction); higher = more cells survive
# test_context: first compound 0.4 µM
Define the label as label 1 when relative viability is strictly less than 0.4 and as label 0 in all remaining cases.

Cc1sc2c(c1C)C(c1ccc(Cl)cc1)=N[C@@H](CC(=O)OC(C)(C)C)c1nnc(C)n1-2 [JQ1] + N=C(N)NC(=N)NCCc1ccccc1 [Phenformin] (partner 250 µM) :: label 0
Cc1sc2c(c1C)C(c1ccc(Cl)cc1)=N[C@@H](CC(=O)OC(C)(C)C)c1nnc(C)n1-2 [JQ1] + Nc1nc2[nH]cc(CCc3ccc(C(=O)N[C@@H](CCC(=O)O)C(=O)O)cc3)c2c(=O)[nH]1 [Pemetrexed] (partner 0.2 µM) :: label 1
Cc1sc2c(c1C)C(c1ccc(Cl)cc1)=N[C@@H](CC(=O)OC(C)(C)C)c1nnc(C)n1-2 [JQ1] + O=C(c1cc(Cc2n[nH]c(=O)c3ccccc23)ccc1F)N1CCN(C(=O)C2CC2)CC1 [Olaparib] (partner 8 µM) :: label 1
Cc1sc2c(c1C)C(c1ccc(Cl)cc1)=N[C@@H](CC(=O)OC(C)(C)C)c1nnc(C)n1-2 [JQ1] + CCNC(=O)c1noc(-c2cc(C(C)C)c(O)cc2O)c1-c1ccc(CN2CCOCC2)cc1 [Luminespib] (partner 0.01 µM) :: label 0
Cc1sc2c(c1C)C(c1ccc(Cl)cc1)=N[C@@H](CC(=O)OC(C)(C)C)c1nnc(C)n1-2 [JQ1] + NC(=O)Nc1cc(-c2cccc(F)c2)sc1C(=O)N[C@H]1CCCNC1 [AZD7762] (partner 0.2 µM) :: label 1

====

# Tested on: HARA
# assay_procedure: relative viability (nuclei count vs DMSO), 5 days (fraction); higher = more cells survive
# test_context: first compound 0.002 µM
measurement_name: relative viability

CC(=O)O[C@@]12CO[C@@H]1C[C@H](O)[C@@]1(C)C(=O)[C@H](O)C3=C(C)[C@@H](OC(=O)[C@H](O)[C@@H](NC(=O)OC(C)(C)C)c4ccccc4)C[C@@](O)([C@@H](OC(=O)c4ccccc4)[C@H]21)C3(C)C [Docetaxel] + C[C@]1(O)C[C@@H](c2nc(-c3ccc4ccc(-c5ccccc5)nc4c3)c3c(N)nccn32)C1 [Linsitinib] (partner 1 µM) :: 0.235
CC(=O)O[C@@]12CO[C@@H]1C[C@H](O)[C@@]1(C)C(=O)[C@H](O)C3=C(C)[C@@H](OC(=O)[C@H](O)[C@@H](NC(=O)OC(C)(C)C)c4ccccc4)C[C@@](O)([C@@H](OC(=O)c4ccccc4)[C@H]21)C3(C)C [Docetaxel] + NC(=O)Nc1cc(-c2cccc(F)c2)sc1C(=O)N[C@H]1CCCNC1 [AZD7762] (partner 0.2 µM) :: 0.105
CC(=O)O[C@@]12CO[C@@H]1C[C@H](O)[C@@]1(C)C(=O)[C@H](O)C3=C(C)[C@@H](OC(=O)[C@H](O)[C@@H](NC(=O)OC(C)(C)C)c4ccccc4)C[C@@](O)([C@@H](OC(=O)c4ccccc4)[C@H]21)C3(C)C [Docetaxel] + CC1(C)CCC(c2ccc(Cl)cc2)=C(CN2CCN(c3ccc(C(=O)NS(=O)(=O)c4ccc(N[C@H](CCN5CCOCC5)CSc5ccccc5)c(S(=O)(=O)C(F)(F)F)c4)cc3)CC2)C1 [Navitoclax] (partner 0.5 µM) :: 0.156
CC(=O)O[C@@]12CO[C@@H]1C[C@H](O)[C@@]1(C)C(=O)[C@H](O)C3=C(C)[C@@H](OC(=O)[C@H](O)[C@@H](NC(=O)OC(C)(C)C)c4ccccc4)C[C@@](O)([C@@H](OC(=O)c4ccccc4)[C@H]21)C3(C)C [Docetaxel] + COc1cccc2cc(-c3nc([C@H]4CC[C@H](C(=O)O)CC4)n4ncnc(N)c34)[nH]c12 [OSI-027] (partner 0.5 µM) :: 0.0997
